Each entry below lists one item and its recorded TGI value.
Tested on: A498 renal
TEST: NCI tumour cell line growth inhibition, 48 h

Worked set:
>>> reported_value("NC(=O)C(=CN1CC(=O)NC1=S)C(N)=O")
"> 100 µM"
>>> reported_value("CC(C)CNc1nc(N=[N+]=[N-])nc(NCC(C)C)n1")
"> 10 µM"
>>> reported_value("Cc1ccccc1NC(=O)C(=O)Cc1cnc2ccccc2n1")
"> 100 µM"
>>> reported_value("CN(CC#N)C(=O)Cc1ccc([N+](=O)[O-])cc1")
"> 10 µM"
>>> reported_value("O=C(CCO)OCCCCCC/C=C\\CCCCCC/C=C\\CCCCCCCCOC(=O)CCO")
"50 µM"
>>> reported_value("CCOc1cc(/C=N\\NC(=O)N/N=C/c2ccc(O)c(OCC)c2)ccc1O")
"61.3 µM"
>>> reported_value("Cc1cc2c(cc1C)[n+]([O-])c(-c1c(Cl)cccc1Cl)c(N)[n+]2[O-]")
"79.9 µM"
>>> reported_value("CS(=O)(=O)OCc1c(O)c2c(c(O)c1COS(C)(=O)=O)C(=O)C=CC2=O")
"> 100 µM"
>>> reported_value("CC[C@H](C)[C@H](NC(=O)C12CC(NC(C)=O)(C1)C2)C(=O)N(C)[C@H](C[C@@H](OC(C)=O)c1nc(C(=O)N[C@@H](Cc2ccccc2)C[C@H](C)C(=O)OC)cs1)C(C)C")
"1.58 µM"
>>> reported_value("COc1ccc(Nc2nc3ccccc3nc2C(=O)O)cc1")
"> 100 µM"

Q: Given the compound C=C1CC(C/C=C(\C)CC2CC(=C)C(=O)O2)OC1=O (configuration not stated) , what is its reported TGI?
A: > 100 µM

Q: Returns the measured TGI for the input compound. Input: `N#CC[C@H](C1CCCC1)n1cc(-c2ncnc3[nH]ccc23)cn1`
A: 53.8 µM

Q: Dear colleague, I am looking for the recorded TGI of the following compound: `NC1=NS(=O)(=O)Nc2nc(-c3cccs3)[nH]c21`
A: > 100 µM

Q: Consider the compound `O=C1c2ccccc2C(=O)c2sc(Nc3ccc(Cl)c(Cl)c3)nc21` and give its measured TGI.
A: 31.6 µM

Q: What value of measured TGI is listed for COc1cc2c3c(c1O)C1(C=CC(=O)C=C1)CC3N(C)CC2 (configuration not stated) ?
A: 48.4 µM

Q: Query: TGI; subject: CC(C)NC(=O)O/N=C1\CCC2[C@@H]3CC=C4C[C@@H](OC(=O)NC(C)C)CC[C@]4(C)C3CC[C@]12C (some centres not stated)
A: > 30.3 µM

// provenance: PubChem BioAssay (NCI)
